Target: T1, human GIP receptor (human, UniProt P48546 22-466)
T1 sequence (looked up): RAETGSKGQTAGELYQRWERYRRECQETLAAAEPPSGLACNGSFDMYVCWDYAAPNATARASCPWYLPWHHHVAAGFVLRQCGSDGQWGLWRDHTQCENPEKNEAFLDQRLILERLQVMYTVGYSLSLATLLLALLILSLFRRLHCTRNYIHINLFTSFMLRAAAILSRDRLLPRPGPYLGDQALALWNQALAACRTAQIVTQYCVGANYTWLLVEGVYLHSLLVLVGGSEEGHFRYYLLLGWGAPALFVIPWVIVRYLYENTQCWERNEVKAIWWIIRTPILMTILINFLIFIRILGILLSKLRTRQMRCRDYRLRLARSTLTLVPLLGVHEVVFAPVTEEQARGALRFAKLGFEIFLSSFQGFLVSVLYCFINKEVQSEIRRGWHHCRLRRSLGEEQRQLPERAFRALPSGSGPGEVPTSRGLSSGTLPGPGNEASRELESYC
Test: cell-based or functional assay
*1 amine or outer side, *2 acyl side, *3 side chain or, on linkers, in order; H or OH if unused. Where no end group is shown, it is not given here. Side-chain parts run from the residue outwards. [ ]: non-standard residue; d: D form. The star is where a group is joined. C18 diacid = O=C(O)CCCCCCCCCCCCCCCCC(=O)*; C16 diacid = O=C(O)CCCCCCCCCCCCCCC(=O)*; γGlu = O=C(O)[C@H](CCC(=O)[*:2])N[*:1]; pGlu = O=C1CC[C@@H](C(=O)O)N1; AEEA = NCCOCCOCC(=O)O
QUANTITY: CisBio cAMP antagonism IC50 (nM)
The figure you give is taken to be in nM; do not add the unit.

[pGlu]GTFISDYSIAMDRIK([AEEA-AEEA-AEEA-γGlu-C18 diacid])QQDFVNWLLAQR-NH2 [AT382]; 25.1
[pGlu]GTFISDYSIAMDRIK([AEEA-AEEA-AEEA-γGlu-C16 diacid])QQDFVNWLLAQR-NH2 [AT380]; 85.8

State the recorded CisBio cAMP antagonism IC50 for this entry: [pGlu]GTFISDYSIAMDRIK(C18 diacid)QQDFVNWLLAQR-NH2 [AT391]
271

Another binder to look at: EGTFISDYSIAMDRIK([AEEA-AEEA-AEEA-γGlu-C18 diacid])QQDFVNWLLAQR-NH2 (not fully specified (residue 1)) [AT378]
11.7
